Data origin: patent US10760110B2

System: K. pneumoniae NVT1001 strains with carbapenemase plasmids
Assay: Etest MIC of β-lactams, OmpK35/36 loss, ΔramR and/or carbapenemase (Table 9)
Format: cell-based, Klebsiella pneumoniae
Details: Klebsiella pneumoniae, VIM-1 on pACYC177; Δ35 (ΔompK35 mutant)
The entries below are paired with their reported MIC.
reported-property: MIC

> print(dat)
                           smiles.structure  observed.result
1  CO[C@@]1(NC(=O)Cc2cccs2)C(=O)N2C(C(=O)O)=C(COC(N)=O)CS[C@@H]21      > 256 µg/mL
2  C[C@@H](O)[C@H]1C(=O)N2C(C(=O)O)=C(SCCN=CN)C[C@H]12         32 µg/mL
3  CCO/N=C(\C(=O)N[C@@H]1C(=O)N2C(C(=O)[O-])=C(Sc3nc(-c4cc[n+](C)cc4)cs3)CS[C@H]12)c1nsc(N)n1      > 256 µg/mL
4  CC(C)(O/N=C(\C(=O)N[C@@H]1C(=O)N2C(C(=O)[O-])=C(C[n+]3ccccc3)CS[C@H]12)c1csc(N)n1)C(=O)O      > 256 µg/mL
